# methodNotes: RP, Waters ACQUITY UPLC BEH C18, 100 × 2.1 mm, 1.7 µm, 35 °C, 0.35 mL/min, estimated dead time 0.63 min; A: water + 0.01% formic acid + 5 mM ammonium formate, pH 3.71; B: acetonitrile + 0.01% formic acid, pH 3.71; gradient (min/%B) 0/5 0.5/5 16/95 16.1/99 19/99 19.1/5 21/5
# studyConditions: stereoisomer not certain
Provide the reported LC retention time of each item.
Just the number please, in min, no unit attached.

Input line: Give its LC retention time value. Item: CN1C(=O)CCC1c1cccnc1 (centres undefined)
Output line: 2.06

Input line: Value lookup for LC retention time; key = CN1CCC23c4c5ccc(O)c4OC2C(O)C=CC3C1C5 (centres undefined)
Output line: 1.47

Input line: Look up LC retention time: COC(=O)Nc1nc2ccc(Sc3ccccc3)cc2[nH]1
Output line: 9.17

Input line: Need LC retention time of CCC1OC(=O)CC(O)C(C)C(OC2OC(C)C(OC3CC(C)(O)C(O)C(C)O3)C(N(C)C)C2O)C(CC=O)CC(C)C(=O)C=CC(C)=CC1COC1OC(C)C(O)C(OC)C1OC (centres undefined) , thanks.
Output line: 7.42

Values were extracted from the RepoRT retention time repository (doi:10.1021/acs.analchem.2c02893).
